pIC50 listing for selected compounds.
- experimental target: recombinant human arginase 1 (Homo sapiens, UniProt P05089)
- Sequence (P05089 whole entry): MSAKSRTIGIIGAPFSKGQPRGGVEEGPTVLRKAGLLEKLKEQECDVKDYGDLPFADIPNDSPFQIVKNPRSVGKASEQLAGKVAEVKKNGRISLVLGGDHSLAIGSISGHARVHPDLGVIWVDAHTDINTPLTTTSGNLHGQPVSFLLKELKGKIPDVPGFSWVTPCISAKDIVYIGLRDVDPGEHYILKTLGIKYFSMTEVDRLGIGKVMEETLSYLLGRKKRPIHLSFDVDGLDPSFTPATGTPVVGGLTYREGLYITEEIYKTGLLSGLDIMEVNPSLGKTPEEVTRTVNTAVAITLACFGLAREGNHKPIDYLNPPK
- assay explanation: Arginase inhibitory activity test, enzymatic assay based on urea measurement (Arg 1);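 also: enzyme incubated with L-arginine substrate and compound at 37 °C for 120 min, urea product detected colorimetrically by absorbance at 450 nm, background from wells lacking enzyme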
pIC50: −log10 of the molar value.

- compound: "N[C@@]1(C(=O)O)CN(S(=O)(=O)N(CC(F)(F)F)C2CNC2)C[C@@H]1CCCB(O)O [Example 66]"
  pIC50: "> 7.00"
- compound: "CC(NS(=O)(=O)N1C[C@H](CCCB(O)O)[C@](N)(C(=O)O)C1)C1(N)CC1 (some centres unmarked) [Example 58]"
  pIC50: "6.00 to 7.00"
- compound: "N[C@H]1CCCCC1NS(=O)(=O)N1C[C@H](CCCB(O)O)[C@](N)(C(=O)O)C1 (mixture of isomers) [Example 22]"
  pIC50: "6.00 to 7.00"
- compound: "N=C(N)NC(=O)N1C[C@H](CCCB(O)O)[C@](N)(C(=O)O)C1 (racemic) [Example 51]"
  pIC50: "6.00 to 7.00"
- compound: "N[C@@]1(C(=O)O)CN(S(N)(=O)=O)C[C@@H]1CCCB(O)O (racemic) [Example 1]"
  pIC50: "> 7.00"
- compound: "NCCN(CC1CC1)S(=O)(=O)N1C[C@H](CCCB(O)O)[C@](N)(C(=O)O)C1 [Example 67]"
  pIC50: "> 7.00"
- compound: "NCC1(NS(=O)(=O)N2C[C@H](CCCB(O)O)[C@](N)(C(=O)O)C2)CC1 (racemic) [Example 12]"
  pIC50: "> 7.00"
- compound: "N[C@@]1(C(=O)O)CN(S(=O)(=O)NCCO)C[C@@H]1CCCB(O)O (racemic) [Example 10]"
  pIC50: "6.00 to 7.00"
- compound: "CC(C)(N)CNS(=O)(=O)N1C[C@H](CCCB(O)O)[C@](N)(C(=O)O)C1 (racemic) [Example 25]"
  pIC50: "> 7.00"
- compound: "CC1(NS(=O)(=O)N2C[C@H](CCCB(O)O)[C@](N)(C(=O)O)C2)CNC1 (racemic) [Example 43]"
  pIC50: "6.00 to 7.00"
- compound: "NC1CN(S(=O)(=O)N2C[C@H](CCCB(O)O)[C@](N)(C(=O)O)C2)C1 (racemic) [Example 33]"
  pIC50: "6.00 to 7.00"
- compound: "N[C@@H]1CCCCC1NS(=O)(=O)N1C[C@H](CCCB(O)O)[C@](N)(C(=O)O)C1 (mixture of isomers) [Example 20]"
  pIC50: "< 5.00"
- compound: "N=C(NC(=O)CN)N1C[C@H](CCCB(O)O)[C@](N)(C(=O)O)C1 (racemic) [Example 38]"
  pIC50: "6.00 to 7.00"
- compound: "CCN(CC1(N)CC1)S(=O)(=O)N1C[C@H](CCCB(O)O)[C@](N)(C(=O)O)C1 [Example 65]"
  pIC50: "5.00 to 6.00"
- compound: "N[C@@]1(C(=O)O)CN(S(=O)(=O)N(c2ccccc2)C2CNC2)C[C@@H]1CCCB(O)O [Example 64]"
  pIC50: "> 7.00"
- compound: "CCCN(C1CNC1)S(=O)(=O)N1C[C@H](CCCB(O)O)[C@](N)(C(=O)O)C1 [Example 59]"
  pIC50: "> 7.00"
- compound: "N[C@@]1(C(=O)O)CN(S(=O)(=O)N(CC2CC2)[C@H]2CCNC2)C[C@@H]1CCCB(O)O [Example 71]"
  pIC50: "> 7.00"
- compound: "NCC(=O)NS(=O)(=O)N1C[C@H](CCCB(O)O)[C@](N)(C(=O)O)C1 (racemic) [Example 8]"
  pIC50: "6.00 to 7.00"
- compound: "N[C@@H]1C[C@H]1NS(=O)(=O)N1C[C@H](CCCB(O)O)[C@](N)(C(=O)O)C1 (racemic) [Example 15]"
  pIC50: "> 7.00"
- compound: "NCCNS(=O)(=O)N1C[C@H](CCCB(O)O)[C@](N)(C(=O)O)C1 (racemic) [Example 5]"
  pIC50: "> 7.00"
- compound: "NC1(CNS(=O)(=O)N2C[C@H](CCCB(O)O)[C@](N)(C(=O)O)C2)COC1 (racemic) [Example 39]"
  pIC50: "6.00 to 7.00"
- compound: "Nc1c(N2C[C@H](CCCB(O)O)[C@](N)(C(=O)O)C2)c(=O)c1=O (racemic) [Example 3]"
  pIC50: "6.00 to 7.00"
- compound: "CCN(C1CNC1)S(=O)(=O)N1C[C@H](CCCB(O)O)[C@](N)(C(=O)O)C1 (racemic) [Example 52]"
  pIC50: "> 7.00"

The reported numbers originate from patent US20220251116A1.
